# pKd per entry
measuredOn: T1, human 4Ig-B7H3 (B7H3-4Ig-His) (human, UniProt Q5ZPR3 29-466)
T1 construct: Recombinant His-tagged protein immobilised on a CM5 chip; also called 41g-B7H3; human 4Ig-B7-H3 (dominant isoform); not shown: His tag
T1 sequence: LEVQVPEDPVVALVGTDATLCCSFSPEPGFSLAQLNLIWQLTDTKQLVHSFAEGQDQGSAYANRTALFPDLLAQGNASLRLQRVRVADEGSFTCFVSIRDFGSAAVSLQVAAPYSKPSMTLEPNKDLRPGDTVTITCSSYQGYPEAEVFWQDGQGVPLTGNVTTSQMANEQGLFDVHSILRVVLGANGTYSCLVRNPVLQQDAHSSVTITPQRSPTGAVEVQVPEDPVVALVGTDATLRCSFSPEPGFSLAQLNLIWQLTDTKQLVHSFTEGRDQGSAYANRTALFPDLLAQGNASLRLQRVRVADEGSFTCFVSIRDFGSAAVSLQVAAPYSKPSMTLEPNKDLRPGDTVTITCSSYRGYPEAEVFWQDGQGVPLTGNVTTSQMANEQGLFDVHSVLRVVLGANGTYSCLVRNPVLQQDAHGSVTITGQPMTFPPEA
experimentSummary: SPR
Hey, just a heads up that pKd is the negative log base 10 of the concentration in molar.

Please review the entries below; each comes with its answer.
[[record]]
binder = "8H9 antibody conjugated with p-SCN-Bn-CHX-A″-DTPA, CAR 6.1 (antibody, mouse IgG1, kappa, V domains shown, p-SCN-Bn-CHX-A″-DTPA conjugated, CAR 6.1 per antibody; sites not stated, Chelator conjugate, not metal-labelled) VH: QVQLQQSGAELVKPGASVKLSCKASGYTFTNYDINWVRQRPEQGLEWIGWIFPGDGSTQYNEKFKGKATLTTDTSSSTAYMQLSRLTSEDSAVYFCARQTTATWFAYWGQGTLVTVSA VL: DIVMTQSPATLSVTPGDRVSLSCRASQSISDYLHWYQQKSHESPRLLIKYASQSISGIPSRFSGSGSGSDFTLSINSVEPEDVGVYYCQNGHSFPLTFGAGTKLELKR"
property = "pKd"
recordedmeasurement = 7.27

[[record]]
binder = "8H9 antibody conjugated with p-SCN-Bn-CHX-A″-DTPA, CAR 0.6 (antibody, mouse IgG1, kappa, V domains shown, p-SCN-Bn-CHX-A″-DTPA conjugated, CAR 0.6 per antibody; sites not stated, Chelator conjugate, not metal-labelled; also called conj-CHX-A″-DTPA (CAR0.6)) VH: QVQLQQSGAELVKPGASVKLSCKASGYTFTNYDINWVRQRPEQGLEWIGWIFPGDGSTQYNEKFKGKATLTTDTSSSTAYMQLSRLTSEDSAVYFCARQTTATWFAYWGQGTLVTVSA VL: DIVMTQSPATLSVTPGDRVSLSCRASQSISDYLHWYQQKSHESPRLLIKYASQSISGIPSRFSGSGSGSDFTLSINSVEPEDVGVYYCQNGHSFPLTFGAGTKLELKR"
property = "pKd"
recordedmeasurement = 8.00

[[record]]
binder = "8H9 antibody conjugated with p-SCN-Bn-CHX-A″-DTPA, CAR 3.6 (antibody, mouse IgG1, kappa, V domains shown, p-SCN-Bn-CHX-A″-DTPA conjugated, CAR 3.6 per antibody; sites not stated, Chelator conjugate, not metal-labelled) VH: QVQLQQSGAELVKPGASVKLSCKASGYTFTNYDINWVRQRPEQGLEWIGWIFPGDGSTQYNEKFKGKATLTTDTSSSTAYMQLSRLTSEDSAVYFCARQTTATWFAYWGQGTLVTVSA VL: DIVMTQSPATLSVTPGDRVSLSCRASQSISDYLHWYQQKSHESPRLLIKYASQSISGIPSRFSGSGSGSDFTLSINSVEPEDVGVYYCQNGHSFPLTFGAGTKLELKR"
property = "pKd"
recordedmeasurement = 7.57


Pending binder:
I am curious: what pKd value has been reported for 8H9 antibody conjugated with p-SCN-Bn-CHX-A″-DTPA, CAR 1.4 (antibody, mouse IgG1, kappa, V domains shown, p-SCN-Bn-CHX-A″-DTPA conjugated, CAR 1.4 per antibody; sites not stated, Chelator conjugate, not metal-labelled) VH: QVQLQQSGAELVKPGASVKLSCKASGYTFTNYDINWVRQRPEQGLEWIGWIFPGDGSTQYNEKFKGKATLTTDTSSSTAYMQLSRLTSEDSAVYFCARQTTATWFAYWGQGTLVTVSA VL: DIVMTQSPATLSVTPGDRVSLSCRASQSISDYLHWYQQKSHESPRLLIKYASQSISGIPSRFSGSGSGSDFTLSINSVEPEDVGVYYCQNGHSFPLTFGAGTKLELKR ? 8.00

Source: patent US20230293738A1
